src = paper PMC4642847

Where no end group is shown, it is not given here.
outcome-measure: Minimum Inhibitory Concentration

Challenge: Kindly state the measured Minimum Inhibitory Concentration obtained for WKVFKKIEKMGRNIRNGIVKA [CBNT21, reference compound] with Xylella fastidiosa 3A2 (Xf).
Response given: 200 25 µM

Challenge: API: value(readout=Minimum Inhibitory Concentration, system=Xylella fastidiosa 3A2 (Xf)) for record TLDELELFTDAVERW [ISS15]
Response given: >300 >300 µM

Challenge: Look up Minimum Inhibitory Concentration with Xylella fastidiosa 3A2 (Xf) for this sequence: KWKVFKKIEKMGRNIRNGIVKAGPAIAVLGEAKAL [CECB, Cecropin B, reference compound]
Response given: 100 25 µM

Challenge: Write down the reported Minimum Inhibitory Concentration of TAYGIMARQPNSRKSFIDSSIRLAR [CHITI25] , test system: Xylella fastidiosa 3A2 (Xf).
Response given: 100 150 µM

Challenge: Record lookup: for Xylella fastidiosa 3A2 (Xf), what Minimum Inhibitory Concentration belongs to TIWKGVPKFLRRVDTALKNI [PPC20] ?
Response given: 150 50 µM
